Data origin: a melting point compilation (Tetko et al.; mined from patent text by program, amines drawn as free bases though some values may be those of a salt)

# melting point per record follows

Some solved entries appear below for comparison.
- molecule: "O=C(c1ccccc1)c1cccc2c(CC(C(=O)O)C(=O)O)c[nH]c12"
  val: "188 to 189 °C"
- molecule: "CN1Cc2c(-c3noc(CCl)n3)ncn2-c2ccc(Cl)cc2C1=O"
  val: "229 °C"
- molecule: "O=C(O)c1c[nH]c2cn[nH]c2c1=O"
  val: "> 330 °C"

# get_value(readout='melting point', item= CCCCc1oc2ccccc2c1-c1ncc(-c2ccc3cc(OCC(=O)OC)ccc3c2)o1 )
149 to 151 °C

# get_value(readout='melting point', item= COc1cc(Cc2c(N)nc(N)nc2Cl)cc(OC)c1N )
222 to 224 °C

# get_value(readout='melting point', item= Cc1c(Cc2cnc[nH]2)cccc1NS(C)(=O)=O )
224 °C

# get_value(readout='melting point', item= CCOC(=O)c1cn(-c2nc(C)ns2)c2cc(F)c(F)cc2c1=O )
157 to 159 °C

###

# melting point per record follows

Some solved entries appear below for comparison.
- molecule: "COc1nc(NC(=O)Nc2ccccc2OC)nc(N(CCC(=O)O)Cc2ccc(Cl)c(Cl)c2)n1"
  observed property: "melting point"
  val: "208 to 210 °C"
- molecule: "CC(C)(C)c1ncncc1C(=O)c1ccc(Cl)cc1"
  observed property: "melting point"
  val: "75 to 77 °C"
- molecule: "CN1CCN(c2ccccc2C=C2CCCN(c3ccc(Cl)cc3)C2=O)CC1"
  observed property: "melting point"
  val: "177 to 178 °C"
- molecule: "O=C1C2CCCN2c2ncccc2N1Cc1ccncc1 (stereo not given)"
  observed property: "melting point"
  val: "262 to 265 °C"
- molecule: "Cn1nc(Br)c(Br)c1Br"
  observed property: "melting point"
  val: "85 to 86 °C"

# evaluate next
# get_value(readout='melting point', item= CCN1Cc2nc(CO)cn2-c2ccccc21 )
160 to 165 °C

###

# melting point per record follows

- molecule: "CC(C(=O)N(C)c1ccccc1)n1c(-c2ccc(Cl)cc2)nc2cccnc21 (stereo not given)"
  val: "174 to 177 °C"

# evaluate next
# get_value(readout='melting point', item= CN(c1cc(OC(F)(F)F)cc2cc(C(=O)O)[nH]c12)S(=O)(=O)c1cccs1 )
245 to 246 °C

###

# melting point per record follows

Some solved entries appear below for comparison.
- molecule: "O=C(O)CCCCCCCCCCSSCCCCCCCCCCC(=O)O"
  melting point: "94 °C"
- molecule: "CCCc1ncc(CN2C(=O)c3ccccc3C2=O)s1"
  melting point: "72 °C"
- molecule: "CC(C)C[C@H](NC1CCOCC1)C(=O)O"
  melting point: "> 300 °C"
- molecule: "COc1cc2c(Cl)nc(-c3ccc(Cl)cc3)nc2c(OC)c1OC"
  melting point: "159 °C"
- molecule: "O=c1[nH]ccc2nc(C(F)(F)F)nn12"
  melting point: "203 to 205 °C"

# get_value(readout='melting point', item= N#Cc1c(F)cccc1Nc1c(F)cccc1F )
145 to 146 °C

# get_value(readout='melting point', item= Cc1sc(-c2ccc(C(F)(F)F)cc2)nc1O )
232 to 233 °C

# get_value(readout='melting point', item= CCOCC(=O)OC1(C(=O)CO)CCC2C3CCC4=CC(=O)CCC4(C)C3C(O)CC21C (configuration not stated) )
161 °C

# get_value(readout='melting point', item= CCCNC(=O)NC1CCCCC1 )
108 to 109 °C

# get_value(readout='melting point', item= CCCc1c(OCCCCC(C)(C)c2nnn[nH]2)ccc(C(C)=O)c1O )
112 to 115 °C

# get_value(readout='melting point', item= CCCCn1c(=O)c2c(NC)n[nH]c2n(Cc2ccc(OC)cc2)c1=O )
292 to 294 °C

# get_value(readout='melting point', item= C[Si](C)(C)O[C@@H]1C(=O)N[C@@H]1c1ccccc1 (relative stereo) )
118 to 120 °C

# get_value(readout='melting point', item= CCNC(=O)C1CCN(Cc2cnc3cc(NC(=O)c4ccc(-c5ccc(F)cc5)cc4)c(C)cc3c2)CC1 )
254 °C

# get_value(readout='melting point', item= c1cc2cc(-c3cnc(O[C@H]4CCN5CCC[C@@H]4C5)nc3)ccc2[nH]1 )
195 to 199 °C

# get_value(readout='melting point', item= CC12CC(=O)C3C(CCC4CC(O)CCC43C)C1CCC2C(=O)CCN1C(=O)c2ccccc2C1=O (configuration not stated) )
187 to 189 °C
